assay: MTD determination in mice (Examples 27, 36, 44); type: in vivo; conditions: female, mouse, in vivo, Table 15 (Example 44); mice, six per group, monitored for 14 d; read-out: MTD
Consider the following compounds; for each one, report its MTD.
Numbers only, in mg/kg.

The cases that follow already have their MTD on record.
compound: CC[C@@]1(O)C(=O)OCc2c1cc1n(c2=O)Cc2c-1nc1ccccc1c2CCNC(C)C [Belotecan, reference compound]
result-type: MTD
result: 15
//
compound: CCc1c2c(nc3ccc(OC(=O)N4CCC(N5CCCCC5)CC4)cc13)-c1cc3c(c(=O)n1C2)COC(=O)[C@]3(O)CC [Irinotecan, reference compound]
result-type: MTD
result: 75

Query string: Which MTD is reported for this compound? CC[C@@]1(O)C(=O)OCC2=C1C=C1c3nc4ccccc4c(CCN(C(=O)OCc4ccc(NC(=O)[C@H](CC(N)=O)NC(=O)[C@H](C)NC(=O)[C@H](C)NC(=O)CCOCCOCCOCCOCCOCCOCCNC(=O)CCN5C(=O)C=CC5=O)cc4)C(C)C)c3CN1C2 [MI-6PEG-AAN-PAB-Belotecan]
Result string: 100
